Parameter normalized growth: see the listing below.
assay: chemical genetic growth profiling, strain panel (AID 1159580);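 also: tested at 20 µM; growth read once vehicle control cultures reached saturation at 30 °C; 1 = growth at the plate median or of vehicle wells; lower values mean less growth of the strain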; conditions: S. cerevisiae deletion strains, growth OD, locus YHR205W, strain SCH9, hits give low values
The campaign covered roughly 5,500 compounds. About 2,000 (36%) were called active. Roughly 18% stayed inconclusive and do not appear here. Some of the results follow.
Respond numerically, and do not add a unit to the figure.

What value of measured normalized growth is listed for "Cc1ccc(C)c(CSc2nc(C3CCCCC3)c(C#N)c(=O)[nH]2)c1" ?
0.988

And the next one, "Cc1nc(-c2cccnc2)nc(NCc2ccccc2)c1Cl" ?
0.886

Same again, this time with "COc1ccc2nc3ccccc3c(N)c2c1"
0.151
